- experimentalDetails: Preliminary PK studies in rats
- conditionDescription: rat, in vivo, 20 mg/kg
propertyLabel: half-life

// query # half-life lookup, item `Oc1ccc2c(c1)OCc1cc(F)ccc1-2`
// result 2.22 h

* * *

- experimentalDetails: Acute toxicity in rats
- conditionDescription: rat, in vivo, acute toxicity
propertyLabel: MTD

// query # MTD lookup, item `Oc1ccc2c(c1)OCc1cc(F)ccc1-2`
// result > 2000 mg/kg

* * *

- experimentalDetails: Acute toxicity in rats
- conditionDescription: rat, in vivo
propertyLabel: NOAEL (mg/kg/day)
Give just the numeric value; mg/kg/day need not be written.

// query # NOAEL lookup, item Oc1ccc2c(c1)OCc1cc(F)ccc1-2 [ARTX-86]
// result 1000
